- target_under_test: Polyamine deacetylase HDAC10 (Homo sapiens)
- Sequence (whole entry): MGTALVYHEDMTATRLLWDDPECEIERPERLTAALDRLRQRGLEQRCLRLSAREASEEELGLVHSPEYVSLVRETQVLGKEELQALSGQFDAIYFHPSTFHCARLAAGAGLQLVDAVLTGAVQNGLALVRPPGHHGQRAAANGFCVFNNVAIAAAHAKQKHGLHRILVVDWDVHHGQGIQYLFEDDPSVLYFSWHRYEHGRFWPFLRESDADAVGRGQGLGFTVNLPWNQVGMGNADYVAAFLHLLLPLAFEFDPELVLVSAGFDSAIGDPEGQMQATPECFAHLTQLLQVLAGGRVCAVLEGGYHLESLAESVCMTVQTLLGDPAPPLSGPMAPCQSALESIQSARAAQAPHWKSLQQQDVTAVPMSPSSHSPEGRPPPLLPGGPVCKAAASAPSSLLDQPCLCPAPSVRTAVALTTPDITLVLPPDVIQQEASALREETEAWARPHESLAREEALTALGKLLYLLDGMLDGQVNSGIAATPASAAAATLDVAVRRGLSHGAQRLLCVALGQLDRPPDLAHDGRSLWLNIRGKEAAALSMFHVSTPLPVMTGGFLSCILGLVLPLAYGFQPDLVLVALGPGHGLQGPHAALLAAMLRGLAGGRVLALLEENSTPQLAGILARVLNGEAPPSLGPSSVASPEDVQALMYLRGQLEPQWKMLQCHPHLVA
- assay_details: Inhibition of N-terminal GST-tagged/C-terminal His-tagged human HDAC10 (1 to 481 residues) expressed in baculovirus infected Sf9 insect cells using BPS HDAC substrate 3 at 10 uM after 30 mins by fluorescence assay relative to control
readout_name: inhibition

Solved entries:
> print(dat)
                           smiles.structure  observed
1  CCC/C=C/[C@@H]1CC(=O)NCc2nc(cs2)C2=N[C@@](C)(CS2)C(=O)N[C@@H](C(C)C)C(=O)O1     < 15%
2  CC(=O)CC(=O)NC/C=C/[C@@H]1CC(=O)NCc2nc(cs2)C2=N[C@@](C)(CS2)C(=O)N[C@@H](C(C)C)C(=O)O1     < 15%

Next compound, please.
Query string: Given CC(C)[C@@H]1NC(=O)[C@]2(C)CSC(=N2)c2csc(n2)CNC(=O)C[C@@H](/C=C/CCN)OC1=O , respond with its inhibition.
Result string: < 15%

Values were extracted from ChEMBL document CHEMBL4020727.
